activity coefficient overview
- assay-comment: activity coefficient (dimensionless); of the first substance listed, at infinite dilution; xn = mol fraction of the nth substance listed
- conditions: 338.15 K; 101.33 kPa; Liquid; Chromatography; x1 = 0
readout: activity coefficient

compound="CC(C)c1ccccc1 [isopropylbenzene] + CCCCCCCCCCCC[N+](C)(C)CCOc1ccccc1.N#C[N-]C#N" readout="activity coefficient" assay_value=1.87
compound="CCOCC [diethyl ether] + CCCCCCCCCCCC[N+](C)(C)CCOc1ccccc1.N#C[N-]C#N" readout="activity coefficient" assay_value=2.22
compound="c1ccncc1 [pyridine] + CCCCCCCCCCCC[N+](C)(C)CCOc1ccccc1.N#C[N-]C#N" readout="activity coefficient" assay_value=0.604
compound="C=CCCCCCC [oct-1-ene] + CCCCCCCCCCCC[N+](C)(C)CCOc1ccccc1.N#C[N-]C#N" readout="activity coefficient" assay_value=4.98
